# Assayed System: ToxoDdi1-RVP (Toxoplasma gondii)
# Sequence (S7W9N7 entry or part of it): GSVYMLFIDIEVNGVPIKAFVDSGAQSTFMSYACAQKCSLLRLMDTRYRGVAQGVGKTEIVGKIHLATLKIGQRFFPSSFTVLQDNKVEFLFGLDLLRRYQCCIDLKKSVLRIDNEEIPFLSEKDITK
# Assay Procedure: biochemical
Result Type: pKd
Interpret pKd as the negative base-10 log of the concentration measured in mol/L.

What value of pKd has been reported for the following compound? Cc1c(O)cccc1C(=O)N[C@@H](CSc1ccccc1)[C@H](O)CN1C[C@H]2CCCC[C@H]2C[C@H]1C(=O)NC(C)(C)C
3.62

---

Each entry below carries its reported Kd.
# Assayed System: LeishDdi1-fl (Leishmania major)
# Construct: The full length Ddi1 construct, LeishDdi1-fl (1–390 aa) was cloned in pET-28a vector; hexa-histidine (N); made in house; host or cells: E. coli BL-21
# Sequence (I7HUG0 whole entry, the tested form may be a part): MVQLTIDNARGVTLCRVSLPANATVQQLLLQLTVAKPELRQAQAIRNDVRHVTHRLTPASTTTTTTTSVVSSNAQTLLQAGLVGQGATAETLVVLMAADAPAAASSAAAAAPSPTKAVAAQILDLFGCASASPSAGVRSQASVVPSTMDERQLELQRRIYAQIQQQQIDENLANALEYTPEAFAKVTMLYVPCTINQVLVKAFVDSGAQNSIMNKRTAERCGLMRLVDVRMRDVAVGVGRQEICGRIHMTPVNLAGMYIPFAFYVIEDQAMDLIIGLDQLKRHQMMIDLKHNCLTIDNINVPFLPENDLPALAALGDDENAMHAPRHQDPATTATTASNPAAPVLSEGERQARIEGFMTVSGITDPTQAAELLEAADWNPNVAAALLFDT
# Assay Procedure: BLI binding of peptides to LeishDdi1-fl
# Parameters: species or system L. major
# Experimental Setup: 5 mM peptide immobilized on AR2G tip, LeishDdi1-fl in solution, 20 mM HEPES pH 7.5, 100 mM NaCl, 10 min, 1:1 Langmuir
Ends that are not written are not given here.
Express the result in µM but write the number alone.

MIWRKPW [MIWRKPW] | 2.8

Consider the additional substance presented here.
What value of Kd has been reported for the following substance? GVGRQEI [GVGRQEI]
25.3
